System: FT3469 (normal neural stem cell line);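 note: cell Painting imaging in 384-well plates, CellProfiler features reduced to at least 20 principal components, Euclidean distance versus same-plate DMSO vehicle wells (0.1% v/v), median over six images per well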
EXPERIMENT: phenotypic distance (Euclidean, principal components) from DMSO controls (arbitrary units); higher = stronger morphological change
EXPERIMENTAL_PARAMETERS: 37 nM; exposure time: 72 h
Counter-ions that a name gives are not always drawn.
PROPERTY_NAME: phenotypic distance
Answer using only a numeral; do not append any unit.

Asked: # input compound: O=C1c2c(O)ccc(O)c2C(=O)c2c(NCCNCCO)ccc(NCCNCCO)c21 [Mitoxantrone] ; wanted: its phenotypic distance
Given back: 1.7

Asked: What about this compound? CCOC(=O)OC(C)OC(=O)[C@@H]1N2C(=O)[C@@H](NC(=O)[C@H](N)c3ccccc3)[C@H]2SC1(C)C (some centres not stated) [Bacampicillin hydrochloride]
Given back: 0.735

Asked: Subsequent entry: Cc1cc(C(C)(C)CC(C)(C)C)ccc1OCCOCC[N+](C)(C)Cc1ccccc1 [Methyl benzethonium chloride]
Given back: 0.81

Asked: Let us now turn to Cn1nnc2c(C(N)=O)ncn2c1=O [Temozolomide]
Given back: 0.484

Asked: Next compound: O=C1CC[C@@H](C(=O)N2CSC[C@H]2C(=O)O)N1 [Pidotimod]
Given back: 0.359

Asked: Then C/C(=C\c1csc(C)n1)[C@@H]1C[C@@H]2O[C@]2(C)CCC[C@H](C)[C@H](O)[C@@H](C)C(=O)C(C)(C)[C@@H](O)CC(=O)N1 [Ixabepilone] ?
Given back: 4.81

Asked: Next record, please: CCCCCCCCCCCCCC(=O)O[C@@H]1[C@@H](C)[C@@]2(O)[C@@H](C=C(CO)C[C@]3(O)C(=O)C(C)=C[C@@H]23)[C@@H]2C(C)(C)[C@]12OC(C)=O [Phorbol 12-myristate 13-acetate]
Given back: 3.38

Asked: And for Cc1nc2ccccn2c(=O)c1CCN1CCC(C(=O)c2ccc(F)cc2)CC1 [Pirenperone] ?
Given back: 0.619

Asked: Can you check CCOC(=O)OC(C)OC1=C(C(=O)Nc2ccccn2)N(C)S(=O)(=O)c2ccccc21 (configuration not stated) [Ampiroxicam] next?
Given back: 0.379

Asked: How about this compound: CC1CNc2c(cccc2S(=O)(=O)N[C@@H](CCCNC(=N)N)C(=O)N2CC[C@@H](C)C[C@@H]2C(=O)O)C1 (some centres not stated) [Argatroban]
Given back: 0.709

Asked: What about CC(C)C[C@H](NC(=O)CNC(=O)c1cc(Cl)ccc1Cl)B1OC(=O)C(CC(=O)O)(CC(=O)O)O1 [MLN9708] ?
Given back: 5.22

Asked: Please give the result for CC(=O)[C@]1(O)Cc2c(O)c3c(c(O)c2[C@@H](O[C@H]2C[C@H](N)[C@H](O)[C@H](C)O2)C1)C(=O)c1ccccc1C3=O [Idarubicin] too.
Given back: 1.77

Asked: Now give it for O=c1[nH]c(=O)n([C@H]2C[C@H](O)[C@@H](CO)O2)cc1I [Idoxuridine] too.
Given back: 0.953

Asked: How about COc1ccc2[nH]c([S+]([O-])Cc3ncc(C)c(OC)c3C)nc2c1 (configuration not stated) [Omeprazole] ?
Given back: 0.685

Asked: What about Cc1cc(CN2CCN(c3c(Br)cnc4nc(-c5ccc(N6CCN(C)CC6)cc5)[nH]c34)CC2)no1 ?
Given back: 1.76

Asked: Cool, now c1ccc2c(c1)[I+]c1ccccc1-2 [Diphenyleneiodonium chloride]
Given back: 1.95

Asked: Cool, now C=CC(=O)Nc1cccc(Oc2nc(Nc3ccc(N4CCN(C)CC4)cc3)nc3ccsc23)c1 [Olmutinib]
Given back: 1.51

###

System: E13 (patient-derived glioblastoma stem cells of classical subtype)
EXPERIMENT: surviving fraction (nuclei count normalised to DMSO); higher = more cells surviving (less toxic)
EXPERIMENTAL_PARAMETERS: 12.3 nM; exposure time: 72 h
Structures can show the parent of a compound that is named as a salt.
Task for the reader: assign each of the following compounds its reported surviving fraction.

Asked: # lookup: surviving fraction of O=C(Oc1cccc2cccnc12)c1ccccc1
Given back: 0.962

Asked: Same for COC(=O)C1=C(C)NC(C)=C(C(=O)OCC(C)C)C1c1ccccc1[N+](=O)[O-] (centres undefined)
Given back: 1.08

Asked: Next compound: COc1cccc2c1C(=O)c1c(O)c3c(c(O)c1C2=O)C[C@@](O)(C(=O)CO)C[C@@H]3O[C@H]1C[C@H](N)[C@H](O[C@@H]2CCCCO2)[C@H](C)O1
Given back: 0.325

Asked: Also, CC(C)N1CCN(c2ccc(OCC3COC(Cn4cncn4)(c4ccc(Cl)cc4Cl)O3)cc2)CC1 (centres undefined) please.
Given back: 0.918

Asked: Consider next the compound CN[C@@H](C)C(=O)N[C@H](C(=O)N1CCC[C@H]1C(=O)N[C@H]1c2ccccc2C[C@H]1OCC#CC#CCO[C@@H]1Cc2ccccc2[C@@H]1NC(=O)[C@@H]1CCCN1C(=O)[C@@H](NC(=O)[C@H](C)NC)C1CCCCC1)C1CCCCC1 in the same way.
Given back: 0.907

Asked: And the next one, CC[C@H]1CN2CCc3cc(OC)c(OC)cc3[C@@H]2C[C@@H]1C[C@H]1NCCc2cc(OC)c(OC)cc21 [Emetine dihydrochloride hydrate] ?
Given back: 0.923

Asked: Next: COC(=O)C[C@](O)(CCCC(C)(C)O)C(=O)O[C@@H]1C(OC)=C[C@]23CCCN2CCc2cc4c(cc2[C@H]13)OCO4
Given back: 0.702

Asked: Would you mind doing COc1ccc2c(c1)CC[C@@H]1[C@@H]2CC[C@]2(C)[C@@H](NCCCCCCN3C(=O)CCC3=O)CC[C@@H]12 as well?
Given back: 0.95

Asked: Check Cc1cc(/C=C/c2ccc3cc(N(C)C)ccc3[n+]2C)c(C)n1-c1ccccc1 [Pyrvinium pamoate] too.
Given back: 0.742

Asked: Okay, and CCCSc1ccc2[nH]c(NC(=O)OC)nc2c1 ?
Given back: 0.877

Asked: Again, but for CNCCCC12CCC(c3ccccc31)c1ccccc12 [Maprotiline hydrochloride]
Given back: 1.05

Asked: Moving on to the next compound: CC[n+]1c(/C=C/C=C2/N(C)c3ccccc3C2(C)C)sc2ccccc21
Given back: 0.567

Asked: Note, next up: c1ccc2c(c1)[I+]c1ccccc1-2 [Diphenyleneiodonium chloride]
Given back: 0.605

Asked: Moving on to CC(=O)O[C@@]12CO[C@@H]1C[C@H](O)[C@@]1(C)C(=O)[C@H](O)C3=C(C)[C@@H](OC(=O)[C@H](O)[C@@H](NC(=O)OC(C)(C)C)c4ccccc4)C[C@@](O)([C@@H](OC(=O)c4ccccc4)[C@H]21)C3(C)C
Given back: 0.245

###

Test system: E13;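 note: nuclei counted by high-content imaging of Hoechst-stained cells in laminin-coated 384-well plates, relative to 0.1% DMSO vehicle wells, with staurosporine as cell-death control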
EXPERIMENT: surviving fraction (nuclei count normalised to DMSO); higher = more cells surviving (less toxic)
EXPERIMENTAL_PARAMETERS: 111.1 nM; exposure time: 72 h
Structures can show the parent of a compound that is named as a salt.
Heads up, the class ranges for surviving fraction are low bracket (below 0.6), middle bracket (0.6 to below 0.9), high bracket (0.9 or more)

Asked: Which of the defined bands does the recorded surviving fraction of CC[n+]1c(/C=C/C=C2/N(C)c3ccccc3C2(C)C)sc2ccccc21 sit within?
Given back: low bracket

Asked: Now this one: CCC(=O)OCC(=O)[C@@]1(OC(=O)CC)[C@H](C)C[C@H]2[C@H]3[C@H]([C@@H](O)C[C@@]21C)[C@@]1(C)C=CC(=O)C=C1C[C@H]3Cl [Alclometasone dipropionate]
Given back: middle bracket

Asked: // next record CCC[C@@H]1C[C@@H](C(=O)N[C@@H]([C@H]2O[C@H](SC)[C@H](O)[C@@H](O)[C@H]2O)[C@@H](C)O)N(C)C1 [Lincomycin hydrochloride]
Given back: high bracket

Asked: And the next one, N=c1ccn2c(n1)O[C@H]1[C@H](O)[C@@H](CO)O[C@H]12 [Ancitabine hydrochloride] ?
Given back: middle bracket

Asked: # iterate: NCCCP(=O)(O)O [3-Aminopropylphosphonic acid]
Given back: middle bracket

Asked: Another: CCCSc1ccc2[nH]c(NC(=O)OC)nc2c1 [Albendazole]
Given back: middle bracket

Asked: Would you mind doing C/C=C1\NC(=O)[C@H]2CSSCC/C=C/[C@H](CC(=O)N[C@H](C(C)C)C(=O)N2)OC(=O)[C@H](C(C)C)NC1=O [Romidepsin] as well?
Given back: low bracket

Asked: How about Cc1cc(Nc2cc(CN3CCOCC3)c3nc(C)c(Cc4ccc(Cl)cc4F)n3n2)n[nH]1 [Gandotinib] ?
Given back: high bracket

Asked: Do the same for COC(=O)C[C@](O)(CCCC(C)(C)O)C(=O)O[C@@H]1C(OC)=C[C@]23CCCN2CCc2cc4c(cc2[C@H]13)OCO4 [Homoharringtonine] please
Given back: low bracket

Asked: Similarly, CC[C@@]1(O)C(=O)OCc2c1cc1n(c2=O)Cc2cc3c(CN(C)C)c(O)ccc3nc2-1 [Topotecan] ?
Given back: low bracket

Asked: Moving on to CC1CNc2c(cccc2S(=O)(=O)N[C@@H](CCCNC(=N)N)C(=O)N2CC[C@@H](C)C[C@@H]2C(=O)O)C1 (stereo not given in full) [Argatroban]
Given back: middle bracket

Asked: Next molecule: CC(C)NCC(O)c1ccc(O)c(O)c1 (stereo not given) [Isoproterenol hydrochloride]
Given back: high bracket
